# Tested on: UACC-257
# PROTOCOL_DESCRIPTION: NCI tumour cell line growth inhibition, 48 h
The source made the active and inactive calls. Cut-off read from the data, not from the text of the source: active = GI50 up to about 1.1 µM and inactive = higher.
Listing of recorded GI50 by entry.

Reference set (3 entries):
CCOC(=O)C1S/C(=N\c2ccc(C)c(C)c2)N=C1C (stereo not given): > 100 µM (inactive)
O=C1NC(c2c(Cl)cccc2Cl)Nc2ccccc21 (stereo not given): > 100 µM (inactive)
C=C(c1ccccc1)[C@@]1(O)CCCC[C@H]1NC(c1ccccc1)c1ccccc1: 10.5 µM (inactive)

What does the data say about its GI50? Entry: COc1cc([C@@H]2c3cc4c(cc3[C@H](OC3OC5COC(C(C)C)OC5C(O)C3O)C3COC(=O)[C@@H]32)OCO4)cc(OC)c1OC (stereo not given in full)
5.01 µM (inactive)

Please report the recorded GI50 for CCN1C/C(=C\c2ccc(Cl)cc2)c2[nH]c(=O)c(C#N)c(-c3ccc(Cl)cc3)c2C1 .
> 100 µM (inactive)
